Numbers sourced from PubChem BioAssay (NCI).

What TGI was measured for each of the following?
tested on: SK-MEL-5 melanoma; assay: NCI tumour cell line growth inhibition, 48 h

TGI recorded for this compound, CC1(C)/C(=C/N=O)N(O)C(C)(C)N1O , is > 100 µM

TGI recorded for this compound, COc1cc2oc(-c3ccc(O)cc3)c(OC)c(=O)c2c(O)c1OC , is > 100 µM

TGI recorded for this compound, CCOC(=O)C1SC(=Nc2ccc(C)c(C)c2)N=C1C (stereo unspecified) , is > 100 µM

TGI recorded for this compound, Cc1ccc(S(=O)(=O)N/N=C2/CCCOC2)cc1 , is > 100 µM

TGI recorded for this compound, CN1CCc2nc(N)nc(-c3nc(N)nc4c3CN(C)CC4)c2C1 , is > 100 µM

TGI recorded for this compound, O=C(/C=C/c1ccc2ccccc2c1)NCc1ccc(C(=O)NCCc2ccccc2)cc1 , is > 100 µM

TGI recorded for this compound, CC(=O)[C@@H](C)C(=O)N1C(=O)OC[C@@]12[C@@H]1CC[C@@H](C1)C2(C)C , is > 100 µM

TGI recorded for this compound, CCOC(=O)c1cn2c(n1)sc1cc(Cl)ccc12 , is > 100 µM

TGI recorded for this compound, CC(=O)ONC(C(=O)C(C)(C)C)C(=O)C(C)(C)C , is > 100 µM

TGI recorded for this compound, CCOP(=O)(OCC)C(c1ccc(F)cc1)N(C(=O)NC(F)(F)F)c1cccc(C(F)(F)F)c1 (stereo unspecified) , is > 100 µM

TGI recorded for this compound, CN(C)CC1CCCC(CN(C)C)C1OC(=O)c1ccccc1 (stereo unspecified) , is > 100 µM

TGI recorded for this compound, Nc1nc([O-])c2c(n1)[n+](C1OC(CO)C(O)C1O)cn2CCO (stereo unspecified) , is > 100 µM

TGI recorded for this compound, S=c1ssc(N2CCOCC2)c1Cl , is 30 µM

TGI recorded for this compound, CCOC(=O)CC(C)C1(C(=O)OCC)CCCCC1=O (stereo unspecified) , is > 100 µM

TGI recorded for this compound, Clc1ccc(C[P+](c2ccccc2)(c2ccccc2)c2ccccc2)c(Cl)c1 , is 3.38 µM

TGI recorded for this compound, CSc1cc(Cl)c(C)cc1S(=O)(=O)NC(=O)NNc1cccc(C(F)(F)F)n1 , is > 100 µM

TGI recorded for this compound, Cc1cc(C)c(NC(=O)c2sc3nc4c(cc3c2N)C(=O)CCC4)c(C)c1 , is 13.8 µM

TGI recorded for this compound, COCC[C@H]1CCC/C=C/[C@@H]2C[C@H](O)C[C@H]2[C@H](O)/C=C/C(=O)O1 , is 0.0319 µM

TGI recorded for this compound, CCN(CC)C1CC(O[C@H]2C[C@](O)(C(=O)CO)Cc3c(O)c4c(c(O)c32)C(=O)c2c(OC)cccc2C4=O)OC(C)C1O (stereo partly specified) , is 0.124 µM

TGI recorded for this compound, CC(=O)Nc1ccc(/C=C/c2ccc(NC(=O)Nc3ccc(/C=C/c4ccc(NC(C)=O)cc4S(=O)(=O)O)c(S(=O)(=O)O)c3)cc2S(=O)(=O)O)c(S(=O)(=O)O)c1 , is > 100 µM

TGI recorded for this compound, C[C@@H](c1ccccc1)n1c(N)c(C#N)c2ccc([N+](=O)[O-])cc2c1=O , is 50.8 µM

----------
system: 786-0 renal; experiment: NCI tumour cell line growth inhibition, 48 h
measure-name: TGI

TGI recorded for this compound, Cc1cc(C(=O)Nc2ccc3cc(CN4CCOCC4)ccc3n2)c(C)n1-c1ccccc1 , is 17.9 µM

TGI recorded for this compound, CC(=O)Oc1ccc2cc(-c3ccccc3OC(C)=O)c(=O)oc2c1 , is > 100 µM

TGI recorded for this compound, CSc1cc(Cl)c(C)cc1S(=O)(=O)NC(=O)NNc1cccc(C(F)(F)F)n1 , is > 100 µM

TGI recorded for this compound, COc1cc(Cc2nccc3cc(OC)c(OC)cc23)c(C(C)=O)cc1OC , is > 750 µM

----------
system: HOP-62 NSCLC; test: NCI tumour cell line growth inhibition, 48 h
What TGI was measured for each of the following?

TGI recorded for this compound, COc1ccc(S(=O)(=O)c2ccccc2[N+](=O)[O-])cc1 , is > 100 µM

TGI recorded for this compound, N#C/C(=C/NC(N)=S)C(N)=O , is > 100 µM

TGI recorded for this compound, CCOC1=NC(O)c2cccn2-c2sccc21 (centres undefined) , is > 100 µM

TGI recorded for this compound, COCC[C@H]1CCC/C=C/[C@@H]2C[C@H](O)C[C@H]2[C@H](O)/C=C/C(=O)O1 , is > 100 µM

TGI recorded for this compound, CC(C)OC(=O)/C=C/C(=O)O/C=C/[N+](=O)[O-] , is > 100 µM

TGI recorded for this compound, O=C(Nc1n[nH]c2cc(-c3ccccc3)ccc12)C1CC1 , is > 25 µM

TGI recorded for this compound, COC(=O)CC1N=C(NC#N)N(CCc2c[nH]c3ccccc23)C1=O (centres undefined) , is > 100 µM

TGI recorded for this compound, COc1ccc2[nH]c3c4[nH]c5ccc(OC)cc5c4c4c(c3c2c1)C(=O)NC4=O , is > 25 µM

TGI recorded for this compound, Cc1ccc(NC(=O)c2cccc(C(C)(C)C#N)c2)cc1Nc1ccc2ncn(C)c(=O)c2c1 , is > 100 µM

----------
test system: SW-620 colon; test: NCI tumour cell line growth inhibition, 48 h
What TGI was measured for each of the following?

TGI recorded for this compound, CCOc1ncn(-c2ccc(NC(=S)NC3OC(CO)C(O)C(O)C3O)cc2)n1 (stereo not given) , is > 100 µM

TGI recorded for this compound, CCNCCNc1cc(-c2ccc(C(F)(F)F)cc2)c(C#N)c2nc3ccccc3n12 , is 2.75 µM

TGI recorded for this compound, Clc1cc(Cl)c2ns[s+]c2c1Cl , is > 100 µM

TGI recorded for this compound, Nc1nc(-[n+]2ccc(-c3ccncc3)cc2)nc(Cl)c1Cl , is > 100 µM

TGI recorded for this compound, CC1=CC(=O)C=CC1=O , is 20.8 µM

----------
test system: NCI/ADR-RES ovarian; assay: NCI tumour cell line growth inhibition, 48 h
What TGI was measured for each of the following?

Item O=C1c2ccccc2C(=O)N1CCCCNOCCCN1C(=O)c2ccccc2C1=O was tested on NCI/ADR-RES ovarian; the reported TGI is > 100 µM

Item CCOC(=O)C1CCN(S(=O)(=O)/N=C2/NC(=O)NC2=C(Cl)Cl)CC1 was tested on NCI/ADR-RES ovarian; the reported TGI is 41.4 µM

Item CCOC(=O)c1ccc(N[C@@H]2c3cc4c(cc3C(c3cc(OC)c(O)c(OC)c3)[C@H]3C(=O)OCC32)OCO4)cc1O (stereo partly specified) was tested on NCI/ADR-RES ovarian; the reported TGI is 99.3 µM

Item COc1cc2oc(-c3ccc(O)cc3)c(OC)c(=O)c2c(O)c1OC was tested on NCI/ADR-RES ovarian; the reported TGI is > 100 µM

Item COc1cc2c3c(n(CCCN)c(=O)c2cc1OC)-c1ccc(C#N)cc1C3=O was tested on NCI/ADR-RES ovarian; the reported TGI is > 100 µM

Item CC1(C)C[C@@H]2C1CCC1(C)CC2(O)CC[C@H]1O (stereo partly specified) was tested on NCI/ADR-RES ovarian; the reported TGI is > 100 µM

Item CC1(C)C(=O)/C(=C\c2cccnc2)C[C@]2(C)[C@H]3CC[C@@H]4[C@H]5[C@H](C(=O)/C=C/c6cccnc6)CC[C@]5(C(=O)O)CC[C@@]4(C)[C@]3(C)CC[C@@H]12 was tested on NCI/ADR-RES ovarian; the reported TGI is > 100 µM

Item N#Cc1cc(-c2cc3ccccc3o2)oc1N was tested on NCI/ADR-RES ovarian; the reported TGI is > 100 µM

Item CN1CCN(CCCNc2nc3ccc(Oc4ccc(NC(=O)Nc5cc(C(F)(F)F)ccc5F)cc4)cc3[nH]2)CC1 was tested on NCI/ADR-RES ovarian; the reported TGI is > 25 µM

Item CCOC(=O)c1c(N2CCOCC2)[nH]c(=O)c(C(c2c(Cl)cccc2Cl)c2c(O)c(C(=O)OCC)c(N3CCOCC3)[nH]c2=O)c1O was tested on NCI/ADR-RES ovarian; the reported TGI is 33.8 µM

Item CN(C)CCCN=c1c2ccccc2n(O)c2ccccc12 was tested on NCI/ADR-RES ovarian; the reported TGI is > 100 µM

Item CCOC(=O)Cn1c(=O)ccn(COCCO)c1=O was tested on NCI/ADR-RES ovarian; the reported TGI is > 100 µM

Item N#C/C(=C/NC(N)=S)C(N)=O was tested on NCI/ADR-RES ovarian; the reported TGI is > 100 µM

Item COc1ccc(-c2[nH]c3ccc(OC)cc3c2/C=C(\C#N)S(=O)(=O)c2ccccc2)cc1 was tested on NCI/ADR-RES ovarian; the reported TGI is 9.22 µM

Item COc1ccc(-c2nc3ccccn3c2/C=C/C(=O)c2cc(OC)c(OC)c(OC)c2)cc1OC was tested on NCI/ADR-RES ovarian; the reported TGI is 8.04 µM

Item C=CCCCCC/C=C\[C@@H](O)C#CC#C/C=C/CO was tested on NCI/ADR-RES ovarian; the reported TGI is > 100 µM

Item CSc1cc(Cl)c(C)cc1S(=O)(=O)NC(=O)NNc1cccc(C(F)(F)F)n1 was tested on NCI/ADR-RES ovarian; the reported TGI is > 100 µM

Item CC(C)OC(=O)/C=C/C(=O)O/C=C/[N+](=O)[O-] was tested on NCI/ADR-RES ovarian; the reported TGI is > 100 µM

Item C=C1C(=O)O[C@H]2[C@H]1CC/C(COC(=O)NCCCCNC(=O)OC/C1=C/CC[C@@]3(C)O[C@H]3[C@H]3OC(=O)C(=C)[C@@H]3CC1)=C\CC[C@@]1(C)O[C@@H]21 was tested on NCI/ADR-RES ovarian; the reported TGI is > 100 µM

Item CCC(=O)Oc1ccc2c(c1)c(=O)c1c(NCCCN(C)C)ccc3nnn2c31 was tested on NCI/ADR-RES ovarian; the reported TGI is 18.5 µM

Item O=S(=O)(c1ccc(NC(=S)NC23CC4CC(CC(C4)C2)C3)cc1)N1CCCCC1 was tested on NCI/ADR-RES ovarian; the reported TGI is > 100 µM
